Here, compounds appear alongside IC50 reported for human DGAT2 (hDGAT2) (Homo sapiens) in the literature.
I only need the number, in µM, no unit after it.

Compound | Unit Spec | IC50
CCn1nc(-c2cccc(OC(F)F)c2)c2ncc(C(=O)NC3(C)CS(=O)(=O)C3)cc21 | µM | 0.111

Looking up CC1(NC(=O)c2ccc3c(ccn3-c3cccc(OC(F)F)c3)c2)CS(=O)(=O)C1 , I found its IC50 recorded as 0.134

Looking up CC(NC(=O)c1ccc(-c2cccc(C(F)(F)F)c2)c2c1CN(C(=O)NC(C)(C)C)CC2)c1nncs1 (stereo not shown) , I found its IC50 recorded as 0.659

---

Here, compounds appear alongside pIC50 reported for human DGAT2 (hDGAT2) (Homo sapiens, UniProt Q96PD7) in the literature.
Please note pIC50 is a logarithmic value: minus log10 of concentration in mol/L. Answer with that number alone.

Study these solved cases before continuing.
Compound | Assay Metric | Endpoint Value
CC1(NC(=O)c2cn3nc(Oc4ncc(F)cc4OCC(F)(F)F)ccc3n2)CCS(=O)(=O)CC1 | pIC50 | 7.80
CC(C)(C)NC(=O)N1CCc2c(-c3cccc(C(F)(F)F)c3)ccc(C(=O)NCc3cnc4ccccn34)c2C1 | pIC50 | 7.27

Consider now this further compound.
Looking up Cc1cc(C)n(-c2cccc(-c3ccc(CNC(=O)[C@@H]4C[C@H]4c4ccccc4)c4c3CCN(C(=O)NC(C)(C)C)C4)c2)n1 (relative stereo) , I found its pIC50 recorded as 5.22

---

Here, compounds appear alongside IC50 reported for human DGAT2 (hDGAT2) (Homo sapiens, UniProt Q96PD7) in the literature.

Study these solved cases before continuing.
Compound | Assayed Target | IC50
O=C(NC1CCS(=O)(=O)C1)c1ccc2c(-c3ccc[n+]([O-])c3)nn(-c3ccc(F)cc3)c2c1 (single isomer, unassigned) | human DGAT2 (hDGAT2) (Homo sapiens, UniProt Q96PD7) | 843 nM
CC(CNC(=O)c1ccc(-c2cccc(C(F)(F)F)c2)c2c1CN(C(=O)NC(C)(C)C)CC2)c1ccno1 (stereo not shown) | human DGAT2 (hDGAT2) (Homo sapiens, UniProt Q96PD7) | 1300 nM

Tested system human DGAT2 (hDGAT2) (Homo sapiens, UniProt Q96PD7); IC50 recorded for CC1(NC(=O)c2cc3nc(OCc4ncc(Cl)cc4OCC(F)F)ccn3n2)CCS(=O)(=O)CC1 was 3.3 nM

Tested system human DGAT2 (hDGAT2) (Homo sapiens, UniProt Q96PD7); IC50 recorded for C[C@@]1(NC(=O)c2nn3ccc(Oc4ncccc4OCC(F)(F)F)cc3c2Cl)CCS(=O)(=O)C1 was 388 nM

Tested system human DGAT2 (hDGAT2) (Homo sapiens, UniProt Q96PD7); IC50 recorded for CC(C)c1c(Oc2ncc(Cl)cc2OCC(F)(F)F)ccc2nc(C(=O)NC3(C)CS(=O)(=O)C3)cn12 was 89 nM

Tested system human DGAT2 (hDGAT2) (Homo sapiens, UniProt Q96PD7); IC50 recorded for CC(O)c1nn(-c2cccc(OC(F)F)c2)c2ccc(C(=O)N[C@@]3(C)CCS(=O)(=O)C3)cc12 (stereo partly shown) was 83 nM

Tested system human DGAT2 (hDGAT2) (Homo sapiens, UniProt Q96PD7); IC50 recorded for CC1(NC(=O)c2nn3ccc(Oc4nccnc4OCC(F)F)cc3c2F)CS(=O)(=O)C1 was 194 nM

---

Here, molecules appear alongside pIC50 reported for human DGAT2 (hDGAT2) (Homo sapiens) in the literature.
Please note pIC50 is a logarithmic value: minus log10 of concentration in mol/L. Answer with that number alone.

Study these solved cases before continuing.
Smi | pIC50
C[C@@]1(NC(=O)c2nn3ccc(Oc4ncc(F)cc4OCC(F)(F)F)cc3c2F)CCS(=O)(=O)C1 | 6.56
Cc1c(Oc2ncc(Cl)cc2OCC(F)(F)F)ccc2nc(C(=O)N[C@H]3CCCC(F)(F)[C@@H]3O)nn12 | 6.24
CCOc1cc(-c2nn(C(C)C)c3cc(C(=O)N[C@@]4(C)CCC[C@H]4O)cnc23)c(F)cn1 | 7.82

Consider now this further molecule.
Tested system human DGAT2 (hDGAT2) (Homo sapiens); pIC50 recorded for Cc1c(Oc2ncc(Cl)cc2OCC(F)(F)F)cc(F)c2nc(C(=O)NC3(C)CCS(=O)(=O)CC3)cn12 was 7.96

---

Here, compounds appear alongside IC50 reported for UniProt Q96PD7 in the literature.
I only need the number, in nM, no unit after it.

Looking up Cc1c(Oc2ncc(Cl)cc2OCC(F)(F)F)ccc2nc(C(=O)NC3(C)CCS(=O)(=O)CC3)cn12 , I found its IC50 recorded as 1.4

Looking up O=C(NCC1(O)CC1)c1ccc2c(-c3ccccc3Cl)nn(-c3ccc(F)cc3)c2c1 , I found its IC50 recorded as 627

Looking up O=C(NC1COC1)c1ccc2c(-c3ccccc3Cl)nn(-c3ccc(F)cc3)c2c1 , I found its IC50 recorded as 873

Looking up COc1cccc(-c2ccc(CNC(=O)[C@@H]3C[C@H]3c3ccccc3)c3c2CCN(C(=O)Nc2ccccn2)C3)c1 (relative stereo) , I found its IC50 recorded as 3110

Looking up CC1(NC(=O)c2ccc3c(-c4ccccc4)nn(-c4ccc(F)cc4)c3c2)CCS(=O)(=O)C1 (single isomer, unassigned) , I found its IC50 recorded as 157

Looking up O=C(N[C@H](CO)c1ccc(C(F)(F)F)nc1)c1ccc2c(-c3ccccc3Cl)cn(-c3ccc(F)cc3)c2c1 , I found its IC50 recorded as 190

Looking up CCOc1cccnc1Oc1ccc2nc(C(=O)N[C@H]3CCCC[C@@H]3O)cn2c1 , I found its IC50 recorded as 3.5

---

Here, molecules appear alongside IC50 reported for human DGAT2 (hDGAT2) (Homo sapiens, UniProt Q96PD7) in the literature.
Note to self: IC50 under 0.7 µM means class 1, ties and anything higher get class 0.

Consider the worked cases shown below.
Molecule | Label
CC(F)(F)COc1cc(Cl)cnc1Oc1ccc2nc(C(=O)NC3(C)CCS(=O)(=O)CC3)cn2c1 | class 1
Cc1noc([C@@H]2C[C@H]2C(=O)NCc2ccc(-c3cccc(OC(F)(F)F)c3)c3c2CN(Cc2noc(C4CC4)n2)CC3)n1 (relative stereo) | class 0
CC1(NC(=O)c2nc3ccc(Oc4ncccc4OCC(F)(F)F)cn3n2)CC(F)(F)C1 | class 0
CC1(NC(=O)c2cn3nc(Oc4ncc(F)cc4OCC(F)F)ccc3n2)CCS(=O)(=O)CC1 | class 1
CCOc1cc(C(F)(F)F)cnc1Oc1ccc2nc(C(=O)NC3(C)CCS(=O)(=O)CC3)c(C)n2c1 | class 1

Exercise: Criterion: IC50 strictly below 0.7 µM. Is it met by CC1(NC(=O)c2cn3c(F)c(Oc4ncccc4OCC(F)(F)F)ccc3n2)CCS(=O)(=O)CC1 ?
Key: class 1

Exercise: Criterion: IC50 strictly below 0.7 µM. Is it met by COC(=O)C1(NC(=O)c2ccc3c(-c4ccccc4Cl)nn(-c4ccc(F)cc4)c3c2)CC[S+]([O-])C1 (racemic) ?
Key: class 1

Exercise: Criterion: IC50 strictly below 0.7 µM. Is it met by CC(C)(C)NC(=O)N1CCc2c(-c3cccc(C(F)(F)F)c3)ccc(CNC(=O)[C@@H]3C[C@H]3c3ccccc3)c2C1 (relative stereo) ?
Key: class 1

Exercise: Criterion: IC50 strictly below 0.7 µM. Is it met by C[C@@H](NC(=O)c1ccc2c(-c3ccccc3Cl)cn(-c3ccc(F)cc3)c2c1)c1ccc(C(F)(F)F)nc1 ?
Key: class 1

Exercise: Criterion: IC50 strictly below 0.7 µM. Is it met by Cc1noc([C@@H]2C[C@H]2C(=O)NCc2ccc(-c3cccc(OC(F)(F)F)c3)c3c2CN(C(=O)NC2COC2)CC3)n1 (relative stereo) ?
Key: class 1

Exercise: Criterion: IC50 strictly below 0.7 µM. Is it met by O=C(NC1CCS(=O)(=O)C1)c1ccc2c(-c3c(Cl)cccc3Cl)cn(-c3ccc(F)cc3)c2c1 (racemic) ?
Key: class 0

Exercise: Criterion: IC50 strictly below 0.7 µM. Is it met by CC(C)(C)NC(=O)N1CCc2c(-c3cccc4c3CNC4=O)ccc(CNC(=O)[C@@H]3C[C@H]3c3ccccc3)c2C1 (relative stereo) ?
Key: class 0

Exercise: Criterion: IC50 strictly below 0.7 µM. Is it met by CCOC(=O)C1(NC(=O)c2ccc3c(-c4ccccc4Cl)nn(-c4ccc(F)cc4)c3c2)CC1 ?
Key: class 1

Exercise: Criterion: IC50 strictly below 0.7 µM. Is it met by CC1(NC(=O)c2ccc3c(-c4ccccc4Cl)nn(-c4ncc(F)cn4)c3c2)CCS(=O)(=O)C1 (racemic) ?
Key: class 1

---

Here, compounds appear alongside pIC50 reported for human DGAT2 (hDGAT2) (Homo sapiens, UniProt Q96PD7) in the literature.
Please note pIC50 is a logarithmic value: minus log10 of concentration in mol/L. Answer with that number alone.

Study these solved cases before continuing.
Compound | pIC50
COc1ccc2nc(CCNC(=O)c3ccc(-c4cccc(OC(F)(F)F)c4)c4c3CN(C(=O)NC(C)(C)C)CC4)[nH]c2c1 | 7.16
COc1cccc(-c2ccc(CNC(=O)[C@@H]3C[C@H]3c3ccccc3)c3c2CCN(C(=O)NC(C)(C)CC(C)(C)C)C3)c1 (relative stereo) | 6.30
O=C(NC1CCS(=O)(=O)C1)c1ccc2c(-c3c(F)cccc3F)nn(-c3ccc(F)cc3)c2c1 (single isomer, unassigned) | 7.60

Tested system human DGAT2 (hDGAT2) (Homo sapiens, UniProt Q96PD7); pIC50 recorded for C[C@]1(NC(=O)c2ccc3c(c2)c(N2CCC[C@H]2C(=O)O)nn3-c2cccc(OC(F)F)c2)CCS(=O)(=O)C1 was 6.45

Tested system human DGAT2 (hDGAT2) (Homo sapiens, UniProt Q96PD7); pIC50 recorded for Cc1nccn1CCNC(=O)c1ccc(-c2cccc(C(F)(F)F)c2)c2c1CN(C(=O)NC(C)(C)C)CC2 was 5.10

Tested system human DGAT2 (hDGAT2) (Homo sapiens, UniProt Q96PD7); pIC50 recorded for CC(C)c1cc2nc(C(=O)NC3(C)CCS(=O)(=O)CC3)cn2cc1Oc1ncc(Cl)cc1OCC(F)(F)F was 6.91

Tested system human DGAT2 (hDGAT2) (Homo sapiens, UniProt Q96PD7); pIC50 recorded for CC1(NC(=O)c2cnc3c(c2)c(C(C)(C)O)nn3-c2cc(OCC(F)F)ncc2F)CCS(=O)(=O)CC1 was 8.57

Tested system human DGAT2 (hDGAT2) (Homo sapiens, UniProt Q96PD7); pIC50 recorded for CC(C)(C)NC(=O)N1CCc2c(-c3cccc(C(F)(F)F)c3)ccc(C(=O)NCCn3nnc4ccccc43)c2C1 was 6.18

Tested system human DGAT2 (hDGAT2) (Homo sapiens, UniProt Q96PD7); pIC50 recorded for CCC1(NC(=O)c2nc3ccc(Oc4ncc(F)cc4OCC(F)(F)F)cn3c2C)CCS(=O)(=O)CC1 was 7.48

Tested system human DGAT2 (hDGAT2) (Homo sapiens, UniProt Q96PD7); pIC50 recorded for CC1(NC(=O)c2cnc3c(-c4cncc(OC(F)F)c4)nn(C4CCOCC4)c3c2)CS(=O)(=O)C1 was 6.75

Tested system human DGAT2 (hDGAT2) (Homo sapiens, UniProt Q96PD7); pIC50 recorded for CC1(NC(=O)c2nc3cc(Oc4ncc(Cl)cc4OCC(F)(F)F)ccn3n2)CCS(=O)(=O)CC1 was 6.46

Tested system human DGAT2 (hDGAT2) (Homo sapiens, UniProt Q96PD7); pIC50 recorded for Cc1c(C(=O)NC2(C)CCS(=O)(=O)CC2)nc2cc(F)c(Oc3nccnc3OCC(F)(F)F)cn12 was 8.11

Tested system human DGAT2 (hDGAT2) (Homo sapiens, UniProt Q96PD7); pIC50 recorded for COc1cccc(-c2ccc(CNC(=O)[C@@H]3C[C@H]3c3nc(C)no3)c3c2CCN(C(=O)NC(C)(C)C)C3)c1 (relative stereo) was 8.52

Tested system human DGAT2 (hDGAT2) (Homo sapiens, UniProt Q96PD7); pIC50 recorded for Cc1ccnc(-c2cn(-c3ccc(F)cc3)c3cc(C(=O)NC4CCS(=O)(=O)C4)ccc23)c1 (racemic) was 6.93
